target: CypE (Homo sapiens); construct: PPIE (UniProtKB Entry Q9UNP9: residues 131–301); host or cells: E. coli BL21(DE3); test: Chymotrypsin coupled prolyl-isomerase assay; assay type: biochemical; conditions: prolyl-isomerase inhibition, 5 nM cyclophilin; read-out: IC50 CypE
Sequence (Q9UNP9 131-301): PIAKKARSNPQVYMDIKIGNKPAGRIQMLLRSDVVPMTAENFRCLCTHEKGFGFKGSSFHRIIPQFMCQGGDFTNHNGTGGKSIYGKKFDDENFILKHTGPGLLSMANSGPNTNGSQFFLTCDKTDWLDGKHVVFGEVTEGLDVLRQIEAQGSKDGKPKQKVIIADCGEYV
metric: pIC50
API: returns pIC50 as number; meaning -log10 of concentration in mol/L.

# get_value(readout='pIC50', item= NC(=O)C1CCNC(=O)C=CC(=O)N2CCCC(Cc3ccccc3)(C2)C(=O)NC(Cc2ccc(-c3ccc(C=O)c(B(O)O)c3)cc2)C(=O)NCc2ccccc2CC(=O)N1 (stereo not shown) )
7.89

###

biological target: CypD (Homo sapiens, UniProt P30405); assay: Competition anisotropy binding assay with A26-Fl; set-up: PPIF (UniProtKB Entry P30405: residues 45–207); made in house; host or cells: E. coli BL21(DE3); details: FP competition with 0.5 nM A26-Fl, 24 h
Sequence (P30405 45-207): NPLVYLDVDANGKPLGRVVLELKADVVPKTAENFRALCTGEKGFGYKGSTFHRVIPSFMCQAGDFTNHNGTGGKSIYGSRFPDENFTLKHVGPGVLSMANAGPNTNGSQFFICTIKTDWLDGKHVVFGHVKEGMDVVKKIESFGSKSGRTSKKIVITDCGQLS
metric: pKi
API: returns pKi as number; meaning -log10 of concentration in mol/L.

# get_value(readout='pKi', item= NC(=O)C1CCNC(=O)C=CC(=O)N2CCCC(Cc3ccccc3)(C2)C(=O)NC(Cc2ccc(-c3ccc(C=O)c(B(O)O)c3)cc2)C(=O)NCc2ccccc2CC(=O)N1 (stereo not shown) )
6.28

###

target: CypD (Homo sapiens, UniProt P30405); assay: Chymotrypsin coupled prolyl-isomerase assay
pIC50: −log10 of the molar value.
metric: pIC50

Answered cases to consult:
Reported pIC50 for CypD (Homo sapiens, UniProt P30405), given CC1NC(=O)C2CCCN(C2)C(=O)C=CC(=O)NCCC(C(=O)NCCOCCN)NC(=O)Cc2ccccc2CNC1=O (stereo not drawn) [Compound A8] ?
< 4.00

And NCCOCCNC(=O)[C@@H]1CCNC(=O)/C=C/C(=O)N2CCC[C@](Cc3ccccc3)(C2)C(=O)N[C@@H](Cc2ccc(-c3ccccc3)cc2)C(=O)NCc2ccccc2CC(=O)N1 [Compound B2] ?
6.74

And NCCOCCNC(=O)C1CCNC(=O)C=CC(=O)N2CCCC(C2)C(=O)NC(CCc2ccccc2)C(=O)NCc2ccccc2CC(=O)N1 (stereo not drawn) [Compound A16] ?
< 4.00

And NCCOCCNC(=O)C1CCNC(=O)C=CC(=O)N2CCC(C2)C(=O)NC(Cc2ccco2)C(=O)NCc2ccccc2CC(=O)N1 (stereo not drawn) [Compound A24] ?
< 4.00

And NCCOCCNC(=O)C1CCNC(=O)C=CC(=O)N2CCCCC2C(=O)NC(Cc2ccco2)C(=O)NCc2ccccc2CC(=O)N1 (stereo not drawn) [Compound A23] ?
< 4.00

New cases:
Reported pIC50 for CypD (Homo sapiens, UniProt P30405), given NCCOCCNC(=O)C1CCNC(=O)C=CC(=O)N2CCCC(C2)C(=O)NC(Cc2ccco2)C(=O)NC2C=CC(C2)C(=O)N1 (stereo not drawn) [Compound A4] ?
< 4.00

And NCCOCCNC(=O)C1CCNC(=O)C=CC(=O)N2CCCC(C2)C(=O)NC(Cc2ccc(-c3ccccc3)cc2)C(=O)NCc2ccccc2CC(=O)N1 (stereo not drawn) [Compound A15] ?
4.74

And NCCOCCNC(=O)C1CCNC(=O)C=CC(=O)N2CCCC(C2)C(=O)NC(Cc2ccco2)C(=O)Nc2ccccc2CC(=O)N1 (stereo not drawn) [Compound A2] ?
< 4.00

And NCCOCCNC(=O)C1CCNC(=O)C=CC(=O)N2CCCC(Cc3ccccc3)(C2)C(=O)NC(Cc2ccco2)C(=O)NCc2ccccc2CC(=O)N1 (stereo not drawn) [Compound A26] ?
6.70

And NC(=O)C1CCNC(=O)C=CC(=O)N2CCCC(Cc3ccccc3)(C2)C(=O)NC(Cc2ccc(-c3ccc(C=O)c(B(O)O)c3)cc2)C(=O)NCc2ccccc2CC(=O)N1 (stereo not drawn) [Compound C3A] ?
6.22

And NCCOCCNC(=O)C1CCNC(=O)CCC(=O)N2CCCC(C2)C(=O)NC(Cc2ccco2)C(=O)NCc2ccccc2CC(=O)N1 (stereo not drawn) [Compound A30] ?
< 4.00

And NCCOCCNC(=O)C1CCNC(=O)C=CC(=O)N2CCCC2CC(=O)NC(Cc2ccco2)C(=O)NCc2ccccc2CC(=O)N1 (stereo not drawn) [JOCBt] ?
< 4.00

###

molecular target: PPWD1 (Homo sapiens, UniProt Q96BP3); construct: PPWD1 (UniProtKB Entry Q96BP3: residues 473–646); host or cells: E. coli BL21(DE3); assay: Chymotrypsin coupled prolyl-isomerase assay; format: biochemical; conditions: wild-type PPWD1; read-out: Wild-Type Cyclophilin Prolyl Isomerase Inhibition IC50 Values, PPWD1
Sequence (Q96BP3 473-646): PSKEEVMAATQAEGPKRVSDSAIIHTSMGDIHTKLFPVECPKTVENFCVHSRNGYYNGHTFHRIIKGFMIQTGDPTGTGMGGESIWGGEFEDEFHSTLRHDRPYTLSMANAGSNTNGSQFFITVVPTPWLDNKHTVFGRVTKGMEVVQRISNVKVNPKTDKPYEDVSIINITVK
pIC50: −log10 of the molar value.
metric: pIC50

Answered cases to consult:
# get_value(readout='pIC50', item= C[N+]1=C(C=CC=CC=C2N(CCCCCC(=O)NCCNC(=O)C3CCNC(=O)C=CC(=O)N4CCCC(Cc5ccccc5)(C4)C(=O)NC(Cc4ccc(-c5ccc(CC(C(=O)O)C(=O)O)cc5)cc4)C(=O)NCc4ccccc4CC(=O)N3)c3ccccc3C2(C)C)C(C)(C)c2ccccc21 (centres unmarked) [Compound B52-Cy5] )
< 5.00

And NCCOCCNC(=O)[C@@H]1CCNC(=O)/C=C/C(=O)N2CCC[C@](Cc3ccccc3)(C2)C(=O)N[C@@H](Cc2ccc(C(=O)c3ccccc3)cc2)C(=O)NCc2ccccc2CC(=O)N1 ?
5.85

And C[N+]1=C(C=CC=CC=C2N(CCCCCC(=O)NCCNC(=O)C3CCNC(=O)C=CC(=O)N4CCCC(Cc5ccccc5)(C4)C(=O)NC(Cc4ccc(-c5ccc(CC(C(=O)O)C(=O)O)cc5)cc4)C(=O)NCc4ccccc4CC(=O)N3)c3ccccc3C2(C)C)C(C)(C)c2ccccc21 (centres unmarked) [*B52-Cy5] ?
< 5.00

And C[N+]1=C(C=CC=CC=C2N(CCCCCC(=O)NCCNC(=O)C3CCNC(=O)C=CC(=O)N4CCCC(Cc5ccccc5)(C4)C(=O)NC(Cc4ccc(-c5ccc(C(CC(=O)O)CC(=O)O)cc5)cc4)C(=O)NCc4ccccc4CC(=O)N3)c3ccccc3C2(C)C)C(C)(C)c2ccccc21 (centres unmarked) [Compound B53-Cy5] ?
< 5.70

And CC(=O)c1ccc(-c2ccc(C[C@@H]3NC(=O)[C@]4(Cc5ccccc5)CCCN(C4)C(=O)/C=C/C(=O)NCC[C@@H](C(=O)NCCOCCN)NC(=O)Cc4ccccc4CNC3=O)cc2)cc1 ?
6.06

New cases:
# get_value(readout='pIC50', item= NCCOCCNC(=O)[C@@H]1CCNC(=O)/C=C/C(=O)N2CCC[C@](Cc3ccccc3)(C2)C(=O)N[C@@H](Cc2ccc(-c3ccc(/C=C/C(=O)O)cc3)cc2)C(=O)NCc2ccccc2CC(=O)N1 )
5.22

And NCCOCCNC(=O)[C@@H]1CCNC(=O)/C=C/C(=O)N2CCC[C@](Cc3ccccc3)(C2)C(=O)N[C@@H](Cc2ccc(-c3ccc(CC(C(=O)O)C(=O)O)cc3)cc2)C(=O)NCc2ccccc2CC(=O)N1 ?
< 4.00

And NCCOCCNC(=O)[C@@H]1CCNC(=O)/C=C/C(=O)N2CCC[C@](Cc3ccccc3)(C2)C(=O)N[C@@H](Cc2ccc(-c3ccc(C(CC(=O)O)CC(=O)O)cc3)cc2)C(=O)NCc2ccccc2CC(=O)N1 ?
< 4.30

###

biological target: CypH (Homo sapiens, UniProt O43447); construct: PPIH (UniProtKB Entry O43447: residues 1–177); His6 with TEV site (2BT vector leader) (N); made in house; host or cells: E. coli BL21(DE3); test: Chymotrypsin coupled prolyl-isomerase assay; format: biochemical; details: prolyl-isomerase inhibition, 5 nM cyclophilin; read-out: IC50 CypH
Sequence (O43447 whole entry, the tested form may be a part): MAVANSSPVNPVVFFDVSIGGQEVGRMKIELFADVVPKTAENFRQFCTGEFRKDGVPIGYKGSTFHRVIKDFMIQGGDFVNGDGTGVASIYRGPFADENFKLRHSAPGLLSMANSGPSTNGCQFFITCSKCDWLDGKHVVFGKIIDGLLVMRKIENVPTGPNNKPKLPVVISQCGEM
pIC50: −log10 of the molar value.
pIC50 values for the compounds below.

# get_value(readout='pIC50', item= NC(=O)C1CCNC(=O)C=CC(=O)N2CCCC(Cc3ccccc3)(C2)C(=O)NC(Cc2ccc(-c3ccc(C=O)c(B(O)O)c3)cc2)C(=O)NCc2ccccc2CC(=O)N1 (stereo not drawn) )
< 4.30

And NCCOCCNC(=O)[C@@H]1CCNC(=O)/C=C/C(=O)N2CCC[C@](Cc3ccccc3)(C2)C(=O)N[C@@H](Cc2ccc(-c3ccccc3)cc2)C(=O)NCc2ccccc2CC(=O)N1 ?
~4.00

Consider the record given below.
# get_value(readout='pIC50', item= NCCOCCNC(=O)[C@@H]1CCNC(=O)/C=C/C(=O)N2CCC[C@](Cc3ccccc3)(C2)C(=O)N[C@@H](Cc2ccc(-c3ccc(CCC(=O)O)cc3)cc2)C(=O)NCc2ccccc2CC(=O)N1 )
~4.52

###

IC50 values for the molecules below.
biological target: CypD (Homo sapiens); test: Chymotrypsin coupled prolyl-isomerase assay
The response must be a number in µM with no trailing unit.

Answered cases to consult:
# get_value(readout='IC50', item= Cc1cccc(CC2NC(=O)C3CCCN(C3)C(=O)C=CC(=O)NCCC(C(=O)NCCOCCN)NC(=O)Cc3ccccc3CNC2=O)c1 (stereo not drawn) )
22

And CC(C)(C)c1ccc(CC2NC(=O)C3CCCN(C3)C(=O)C=CC(=O)NCCC(C(=O)NCCOCCN)NC(=O)Cc3ccccc3CNC2=O)cc1 (stereo not drawn) ?
10

Consider the record given below.
# get_value(readout='IC50', item= NCCCc1ccc(-c2ccc(C[C@@H]3NC(=O)[C@]4(Cc5ccccc5)CCCN(C4)C(=O)/C=C/C(=O)NCC[C@@H](C(=O)NCCOCCN)NC(=O)Cc4ccccc4CNC3=O)cc2)cc1 )
6
